From: patent US8178668B2

Here's what we have: IC50 numbers for MET (human) (Homo sapiens).
Structures can show the parent of a compound that is named as a salt.

These recorded examples may help you get a feel for the data.
| compound | IC50 |
| --- | --- |
| Nc1ncc(-c2cccc(C(=O)N3CCCC(O)C3)c2)cc1-c1nc2ccccc2s1 (stereo not shown) | 1 to 20 µM |
| Nc1ncc(-c2cnn([C@@H]3CN[C@@H](C(=O)N4CCCCC4)C3)c2)cc1-c1nc2ccccc2s1 | 0.1 to 1 µM |
| CN(C)C1CCN(C(=O)c2cccc(-c3cnc(N)c(-c4nc5ccccc5s4)c3)c2)C1 (stereo not shown) | 0.1 to 1 µM |

We now examine a further compound.
Note to self: IC50 of Nc1ncc(-c2cnn(C3CCNCC3)c2)cc1-c1cc2c(-c3cn[nH]c3)ccc(F)c2cn1 [Example 51, trihydrochloride] with MET (human) (Homo sapiens) was ≤ 0.1 µM

----------
pIC50: −log10 of the molar value. Where a name gives a salt, the structure may show the parent alone.
Here's what we have: pIC50 numbers for UniProt:Q04912.
Sequence (Q04912 25-1400): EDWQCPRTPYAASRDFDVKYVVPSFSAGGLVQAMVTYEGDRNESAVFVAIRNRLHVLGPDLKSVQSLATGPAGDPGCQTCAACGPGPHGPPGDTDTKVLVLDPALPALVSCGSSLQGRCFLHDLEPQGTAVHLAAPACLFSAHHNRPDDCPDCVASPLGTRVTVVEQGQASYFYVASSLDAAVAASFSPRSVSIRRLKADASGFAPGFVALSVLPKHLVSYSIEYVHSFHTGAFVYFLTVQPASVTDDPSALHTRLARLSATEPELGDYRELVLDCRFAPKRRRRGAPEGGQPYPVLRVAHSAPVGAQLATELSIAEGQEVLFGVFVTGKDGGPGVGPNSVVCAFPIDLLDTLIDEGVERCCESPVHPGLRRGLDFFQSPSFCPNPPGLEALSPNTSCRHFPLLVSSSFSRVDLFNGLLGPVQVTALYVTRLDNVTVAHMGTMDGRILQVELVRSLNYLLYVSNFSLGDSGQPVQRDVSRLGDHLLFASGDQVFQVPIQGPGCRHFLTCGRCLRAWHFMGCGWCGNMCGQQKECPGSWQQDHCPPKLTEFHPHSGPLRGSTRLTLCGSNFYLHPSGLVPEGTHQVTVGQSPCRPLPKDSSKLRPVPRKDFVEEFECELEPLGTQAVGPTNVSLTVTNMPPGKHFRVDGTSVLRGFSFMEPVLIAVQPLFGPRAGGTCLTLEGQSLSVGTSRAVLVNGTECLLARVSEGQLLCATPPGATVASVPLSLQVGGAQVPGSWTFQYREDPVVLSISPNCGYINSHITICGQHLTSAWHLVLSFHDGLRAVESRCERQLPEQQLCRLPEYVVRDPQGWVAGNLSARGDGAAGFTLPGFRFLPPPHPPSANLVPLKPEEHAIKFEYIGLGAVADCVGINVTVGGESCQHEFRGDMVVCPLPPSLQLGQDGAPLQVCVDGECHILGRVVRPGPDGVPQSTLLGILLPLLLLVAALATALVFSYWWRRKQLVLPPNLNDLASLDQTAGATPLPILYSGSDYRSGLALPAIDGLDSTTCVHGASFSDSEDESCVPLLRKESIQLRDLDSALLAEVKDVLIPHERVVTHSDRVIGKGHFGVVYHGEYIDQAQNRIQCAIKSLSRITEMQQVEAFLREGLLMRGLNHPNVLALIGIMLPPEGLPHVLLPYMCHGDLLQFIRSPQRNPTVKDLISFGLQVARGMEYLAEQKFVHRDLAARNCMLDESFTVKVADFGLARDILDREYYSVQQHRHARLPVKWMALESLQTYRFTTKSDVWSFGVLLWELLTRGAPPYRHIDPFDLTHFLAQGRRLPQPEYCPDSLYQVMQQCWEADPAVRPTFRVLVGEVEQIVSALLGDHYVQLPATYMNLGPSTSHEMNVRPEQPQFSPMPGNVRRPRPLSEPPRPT

These recorded examples may help you get a feel for the data.
| compound | tested.system | pIC50 |
| --- | --- | --- |
| Nc1ncc(-c2cnn(C3CCNCC3)c2)cc1-c1nc2c(C(F)(F)F)ccc(F)c2s1 | UniProt:Q04912 | 6.00 to 7.00 |
| Nc1ncc(-c2cnn([C@@H]3CN[C@H](C(=O)N4CCCC4)C3)c2)cc1-c1cc2c(Cl)ccc(F)c2cn1 | UniProt:Q04912 | 6.00 to 7.00 |
| Nc1ncc(-c2cnn(C3CCNCC3)c2)cc1-c1nc2cccc(-c3cc[nH]c3)c2s1 [Example 251, trifluoroacetate] | UniProt:Q04912 | 6.00 to 7.00 |
| Nc1ncc(-c2ccc[nH]2)cc1-c1nc2ccccc2s1 | UniProt:Q04912 | 4.70 to 6.00 |
| Nc1ncc(-c2cnc(N3CCNCC3)s2)cc1-c1nc2ccccc2s1 [Example 122, dihydrochloride] | UniProt:Q04912 | 6.00 to 7.00 |
| Nc1ncc(-c2cnn(C3CCNCC3)c2)cc1-c1nc2c(Cl)cccc2s1 | UniProt:Q04912 | 6.00 to 7.00 |
| Nc1ncc(-c2ccc(OCC(=O)NCC3CCCCC3)cc2)cc1-c1nc2ccccc2s1 | UniProt:Q04912 | < 4.70 |
| CN(C)C(=O)N1CCC(n2cc(-c3cnc(N)c(-c4nc5ccccc5s4)c3)cn2)CC1 [Example 117, bis-hydrochloride] | UniProt:Q04912 | 6.00 to 7.00 |

Entry Nc1ncc(-c2cnn(C3CCNCC3)c2)cc1-c1cc2cc(F)cc(F)c2cn1 [Example 46, trihydrochloride salt] , pIC50 reported as 4.70 to 6.00

Entry Nc1ncc(-c2cnn([C@@H]3CCNC3)c2)cc1-c1cc2c(Cl)ccc(F)c2cn1 [Example 62, trihydrochloride] , pIC50 reported as 6.00 to 7.00

Entry Nc1ncc(-c2cnn([C@@H]3CN[C@H](C(=O)N4CCCC4)C3)c2)cc1-c1nc2ccccc2s1 , pIC50 reported as ≥ 7.00

Entry CN(C)CCNC(=O)c1cccc(-c2cnc(N)c(-c3nc4ccccc4s3)c2)c1 , pIC50 reported as 4.70 to 6.00

----------
tested.system: UniProt:P08581
pIC50: −log10 of the molar value. Counter-ions that a name gives are not always drawn.
recorded.metric: pIC50

These recorded examples may help you get a feel for the data.
| compound | tested.system | pIC50 |
| --- | --- | --- |
| CCN(CC)CCNC(=O)c1cccc(-c2cnc(N)c(-c3nc4ccccc4s3)c2)c1 [Example 207] | UniProt:P08581 | 4.70 to 6.00 |
| CN1CCN(c2ncc(-c3cnc(N)c(-c4nc5ccccc5s4)c3)s2)CC1 [Example 121, dihydrochloride] | UniProt:P08581 | 6.00 to 7.00 |
| Cc1c(-c2cc(-c3cnn(C4CCNCC4)c3)cnc2N)oc2ccccc12 [Example 94, bishydrochloride] | UniProt:P08581 | 6.00 to 7.00 |
| Nc1ncc(-c2ccc[nH]2)cc1-c1nc2ccccc2s1 [Example 230] | UniProt:P08581 | 4.70 to 6.00 |
| CNC(=O)COc1ccc(-c2cnc(N)c(-c3nc4ccccc4s3)c2)cc1 [Example 238] | UniProt:P08581 | 4.70 to 6.00 |

Entry CN(C)C(=O)CCn1cc(-c2cnc(N)c(-c3nc4ccccc4s3)c2)cn1 [Example 295] , pIC50 reported as 6.00 to 7.00

Entry Cc1ccc2cnc(-c3cc(-c4cnn(C5CCNCC5)c4)cnc3N)cc2c1 [Example 4, trihydrochloride] , pIC50 reported as 6.00 to 7.00

Entry Nc1ncc(-c2cnn(C3CCNCC3)c2)cc1-c1nc2ccccc2s1 [Example 107, dihydrochloride] , pIC50 reported as ≥ 7.00
